molecular target: mGluR5 receptor (human) (Homo sapiens, UniProt P41594); experiment: Functional Ca2+ influx assay in CHO-hmGluR5 cells (DHPG 10 μM, FLIPR)
Sequence (P41594 21-1212): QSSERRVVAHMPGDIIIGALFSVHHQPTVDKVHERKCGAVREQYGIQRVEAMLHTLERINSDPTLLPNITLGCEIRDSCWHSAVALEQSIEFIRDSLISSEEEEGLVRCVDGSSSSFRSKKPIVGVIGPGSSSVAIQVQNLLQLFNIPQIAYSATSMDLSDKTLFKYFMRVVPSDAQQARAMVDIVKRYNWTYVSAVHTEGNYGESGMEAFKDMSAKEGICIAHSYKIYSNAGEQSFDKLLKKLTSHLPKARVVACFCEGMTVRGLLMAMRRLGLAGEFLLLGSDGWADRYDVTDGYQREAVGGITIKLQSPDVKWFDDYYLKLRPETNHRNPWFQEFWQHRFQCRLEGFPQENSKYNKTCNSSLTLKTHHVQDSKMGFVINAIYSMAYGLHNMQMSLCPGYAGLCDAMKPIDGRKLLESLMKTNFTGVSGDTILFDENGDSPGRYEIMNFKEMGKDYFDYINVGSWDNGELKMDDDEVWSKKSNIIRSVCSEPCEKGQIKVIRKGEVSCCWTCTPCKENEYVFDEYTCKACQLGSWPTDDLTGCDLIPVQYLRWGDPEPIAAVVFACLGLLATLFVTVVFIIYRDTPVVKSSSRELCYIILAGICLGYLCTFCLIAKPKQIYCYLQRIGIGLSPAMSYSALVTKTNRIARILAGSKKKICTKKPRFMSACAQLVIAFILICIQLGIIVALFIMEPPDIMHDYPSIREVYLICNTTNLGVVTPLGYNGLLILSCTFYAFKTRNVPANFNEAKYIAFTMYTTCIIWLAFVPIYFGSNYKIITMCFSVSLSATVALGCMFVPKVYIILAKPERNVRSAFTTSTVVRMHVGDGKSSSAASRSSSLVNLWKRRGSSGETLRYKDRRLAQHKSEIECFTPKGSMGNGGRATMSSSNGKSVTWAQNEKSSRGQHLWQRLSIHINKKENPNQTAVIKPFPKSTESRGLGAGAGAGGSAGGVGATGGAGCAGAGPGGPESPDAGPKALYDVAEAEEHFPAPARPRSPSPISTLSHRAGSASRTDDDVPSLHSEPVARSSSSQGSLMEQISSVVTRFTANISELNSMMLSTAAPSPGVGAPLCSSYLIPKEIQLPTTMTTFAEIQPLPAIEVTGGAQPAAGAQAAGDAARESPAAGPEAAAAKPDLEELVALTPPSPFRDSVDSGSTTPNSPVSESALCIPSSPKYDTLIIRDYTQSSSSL
Would you mind telling me the reported pKi of each entry?
One number for each entry, as −log10 of the molar value.

CS(=O)(=O)N(Cc1cccc(-c2ccc3ncnc(NC4CC4)c3c2)c1)C1CC1 7.92

Below are some compounds; for each one, tell me its pKi.
1. O=C(N(Cc1cccc(-c2ccc3ncnc(NC4CC4)c3c2)c1)C1CC1)C(F)(F)F
2. CC(=O)N(Cc1cc(-c2ccc3ncnc(NC4CC4)c3c2)ccc1F)C1CC1
3. N#CCC(=O)N(Cc1cccc(-c2ccc3ncnc(NC4CC4)c3c2)c1)C1CC1

# output
[8.77, 9.10, 8.08]

* * *

Biological target: mGluR5 receptor (Sus scrofa, UniProt I3LUI7)
Construct: 450 μg of protein from brain homogenate with 5 nM ^3[H]-MPEP; from tissue; host or cells: pig brain halves without medulla, cerebellum and pons
Sequence (I3LUI7 19-1212): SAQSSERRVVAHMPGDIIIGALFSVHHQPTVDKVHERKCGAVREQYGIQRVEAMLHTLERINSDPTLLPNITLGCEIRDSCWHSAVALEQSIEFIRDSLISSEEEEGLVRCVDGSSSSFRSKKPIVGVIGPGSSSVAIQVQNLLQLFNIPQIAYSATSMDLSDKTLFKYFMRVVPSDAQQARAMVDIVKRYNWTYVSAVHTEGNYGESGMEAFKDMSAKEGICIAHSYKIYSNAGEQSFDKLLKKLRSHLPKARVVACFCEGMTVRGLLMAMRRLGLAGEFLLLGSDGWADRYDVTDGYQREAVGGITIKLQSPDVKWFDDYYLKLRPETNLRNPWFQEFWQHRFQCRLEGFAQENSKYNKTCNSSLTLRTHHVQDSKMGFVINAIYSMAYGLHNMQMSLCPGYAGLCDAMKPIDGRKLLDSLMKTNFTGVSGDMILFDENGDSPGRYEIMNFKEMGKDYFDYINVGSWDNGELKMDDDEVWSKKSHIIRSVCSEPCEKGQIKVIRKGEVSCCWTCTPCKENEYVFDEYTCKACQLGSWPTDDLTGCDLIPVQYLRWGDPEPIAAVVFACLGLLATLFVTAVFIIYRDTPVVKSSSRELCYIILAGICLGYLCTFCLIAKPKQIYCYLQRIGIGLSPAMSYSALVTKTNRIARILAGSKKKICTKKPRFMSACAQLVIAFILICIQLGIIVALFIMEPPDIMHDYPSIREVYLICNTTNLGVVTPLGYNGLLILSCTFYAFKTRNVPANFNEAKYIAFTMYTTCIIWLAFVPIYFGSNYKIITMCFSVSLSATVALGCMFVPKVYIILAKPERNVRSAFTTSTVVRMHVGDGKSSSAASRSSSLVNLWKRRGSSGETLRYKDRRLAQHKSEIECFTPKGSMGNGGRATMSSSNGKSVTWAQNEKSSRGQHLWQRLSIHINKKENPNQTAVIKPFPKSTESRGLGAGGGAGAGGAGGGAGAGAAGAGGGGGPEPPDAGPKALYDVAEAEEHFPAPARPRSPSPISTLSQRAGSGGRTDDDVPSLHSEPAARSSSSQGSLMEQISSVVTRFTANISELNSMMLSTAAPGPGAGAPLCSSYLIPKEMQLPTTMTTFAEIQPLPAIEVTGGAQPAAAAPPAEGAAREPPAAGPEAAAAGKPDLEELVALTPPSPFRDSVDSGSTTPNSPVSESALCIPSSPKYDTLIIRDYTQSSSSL
Experiment: [3H]-MPEP mGluR5 receptor binding assay (pig brain homogenate)
Settings: 10 μM compound, 5 nM [3H]-MPEP, read-out: % Inhibition of mGluR5 Receptor (pig) [^3H]-MPEP Bond at 10 μM
Procedure: I. Method for Determining the Inhibition of the [^3H]-MPEP Bond in the mGluR5 Receptor Binding Assay […] The batches are then filtered using a Brandel cell harvester (Brandel, Robotic 9600) on unifilter plates with fibreglass filter mats (Perkin Elmer, order no. 6005177) and then washed with buffer (as above) 3-times each with 250 μl per sample. […] The non-specific binding is determined by adding 10 μM of MPEP (Tocris, order no. 1212).
Where a name gives a salt, the structure may show the parent alone.
Criterion: inhibition at 10 µM meeting or surpassing 80%. Met: TRUE. Not met: FALSE.

compound	group
O=S(=O)(c1cccs1)N(Cc1cc(-c2ccc3ncnc(NC4CC4)c3c2)ccc1Cl)C1CC1 [Example 734]	TRUE
O=C(c1ccc(C(F)(F)F)cc1F)N(Cc1cc(-c2ccc3ncnc(NC4CC4)c3c2)ccc1Cl)C1CC1 [Example 800]	TRUE
Cc1nc(C(=O)N(Cc2cc(-c3ccc4ncnc(NC5CC5)c4c3)ccc2Cl)C2CC2)cs1 [Example 769]	TRUE
O=C(c1ccccc1Cl)N(Cc1cccc(-c2ccc3ncnc(NC4CC4)c3c2)c1)C1CC1 [Example 172]	TRUE

# input State whether the measured inhibition at 10 µM reaches 80%, counting equality as reaching it, for COc1ccc(CNc2ncnc3ccc(-c4cccc(CN(C(=O)c5cc(C)nn5C)C5CC5)c4)cc23)c(OC)c1 [Example 730]
# output FALSE

# input State whether the measured inhibition at 10 µM reaches 80%, counting equality as reaching it, for O=C1CC2(CCCC2)CC(=O)N1Cc1cccc(-c2ccc3ncnc(NC4CC4)c3c2)c1 [Example 243, hydrochloride]
# output FALSE

# input Determine whether measured inhibition at 10 µM meets or exceeds 80% for CCCCC(=O)N(Cc1cccc(-c2cc3c(NC4CC4)ncnc3cc2C)c1)C1CC1 [Example 715]
# output TRUE

* * *

molecular target: mGluR5 receptor (Sus scrofa, UniProt I3LUI7); construct: 450 μg of protein from brain homogenate with 5 nM ^3[H]-MPEP; from tissue; host or cells: pig brain halves without medulla, cerebellum and pons; test: [3H]-MPEP mGluR5 receptor binding assay (pig brain homogenate); settings: 10 μM compound, 5 nM [3H]-MPEP, read-out: % Inhibition of mGluR5 Receptor (pig) [^3H]-MPEP Bond at 10 μM
Hi there, I'd appreciate the recorded inhibition at 10 µM for every entry that follows.

Example entries begin here.
O=C(c1c(F)c(F)c(F)c(F)c1F)N(Cc1cc(-c2ccc3ncnc(NC4CC4)c3c2)ccc1Cl)C1CC1 92%
O=S(=O)(c1cccc2cccnc12)N(Cc1cccc(-c2cc(F)c3ncnc(NC4CC4)c3c2)c1)C1CC1 36%
COc1ccc(C(=O)N(Cc2ccccc2)Cc2cccc(-c3ccc4ncnc(NC(C)C)c4c3)c2)cc1 67%

Provide reported inhibition at 10 µM for each item, in the same order as listed.
1. Cc1cc2ncnc(NC3CC3)c2cc1-c1cccc(CN(C(=O)c2c(F)c(F)c(F)c(F)c2F)C2CC2)c1
2. O=C(c1cc(Cl)cc(Cl)c1)N(Cc1cc(-c2ccc3ncnc(NC4CC4)c3c2)ccc1F)C1CC1
3. CC(C)Nc1ncnc2ccc(-c3cccc(CN(Cc4ccccc4)C(=O)c4cccs4)c3)cc12
4. CC(C)Nc1ncnc2ccc(-c3cccc(CN(Cc4ccccc4)C(=O)c4cccnc4)c3)cc12

# output
["88%", "81%", "37%", "63%"]
